system: H4; assay: Cytotoxicity against human H4 cells expressing wild type betaAPP695 assessed as decrease in cell protein at 30 uM after 24 hrs; type: cell-based; set-up: scale not given: the % may be the effect or the level left; conditions: h4, 24 h
hey, just use Condition met if measured Activity is less than 10%, otherwise Condition not met

> print(dat)
                            substancesmiles           category
1  O=C(NCCSCc1cccc(Cl)c1)c1c(C(F)(F)F)cccc1C(F)(F)F      Condition met
2                O=C(NCCSCc1ccccc1)c1ccccc1      Condition met
3  O=C(NCCSCc1cccc(Cl)c1)c1c([N+](=O)[O-])cccc1[N+](=O)[O-]  Condition not met
4  O=C(NCCSCc1cccc(C(F)(F)F)c1)c1c(Cl)cccc1Cl  Condition not met
5     O=C(Cc1c(Cl)cccc1Cl)NCCSCc1cccc(Cl)c1      Condition met
6      O=C(NCCSCc1cccc(O)c1O)c1c(Cl)cccc1Cl  Condition not met

The reported numbers originate from ChEMBL document CHEMBL1165845.
